Target Or Test System: T1, CD81 (UniProt P60033 1-236, limits assumed)
T1 construct: whole, on cells; also called CD81 receptor
T1 sequence (looked up): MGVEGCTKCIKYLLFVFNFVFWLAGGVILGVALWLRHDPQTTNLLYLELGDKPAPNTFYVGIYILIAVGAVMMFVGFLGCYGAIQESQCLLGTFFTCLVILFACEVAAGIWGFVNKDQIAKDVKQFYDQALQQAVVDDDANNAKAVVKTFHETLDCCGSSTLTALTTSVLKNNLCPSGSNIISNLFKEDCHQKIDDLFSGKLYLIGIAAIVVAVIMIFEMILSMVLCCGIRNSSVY
Experiment Summary: cell ELISA;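 note: antibody binding to HuH7 cells expressing CD81 versus a CD81-negative HuH7 control line, bound antibody detected by secondary reagent, absorbance at 450 nm with 620 nm reference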
Lab note: class by ELISA data, see bottom (below 0.5), middle (0.5 to below 0.6), top (0.6 or more)

{"Binder": "CD81K13 HC 06-hVH_1_3 / LC 01-hVK_3_15 (antibody, V domains shown, human constant region) VH: QVQLVQSGAEVKKPGASVKVSCKASGYTFKDSYLHWVRQAPGQRLEWMGRIDTGNGNVKFDPKFQGRVTITTDTSASTAYMELSSLRSEDTAVYYCAPYGYGFHSWGQGTLVTVSS VL: EIVMTQSPATLSVSPGERATLSCRASENIYRTLAWYQQKPGQAPRLLIYGATTRATGIPARFSGSGSGTEFTLTISSLQSEDFGVYYCQHFWGTPWTFGQGTKVEIK", "Cat": "middle"}
{"Binder": "CD81K13 HC 06-hVH_1_3 / LC 5b-hVK_1_39-GA (antibody, V domains shown, human constant region) VH: QVQLVQSGAEVKKPGASVKVSCKASGYTFKDSYLHWVRQAPGQRLEWMGRIDTGNGNVKFDPKFQGRVTITTDTSASTAYMELSSLRSEDTAVYYCAPYGYGFHSWGQGTLVTVSS VL: DIQMTQSPSSLSASVGDRVTITCRASENIYRTLAWYQQKPGKAPKLLIYGATTLADGVPSRFSGSGSGTDFTLTISSLQPEDFATYYCQHFWGTPWTFGQGTKVEIK", "Cat": "bottom"}

[ask] Hey, which category is CD81K13 HC 02-hVH_1_3 / LC 5b-hVK_1_39 (antibody, V domains shown, human constant region) VH: QVQLVQSGAEVKKPGASVKVSCKASGYTFTDSYMHWVRQAPGQRLEWMGRIDTGNGNTKYSQKFQGRVTITTDTSASTAYMELSSLRSEDTAVYYCAPYGYGFHSWGQGTLVTVSS VL: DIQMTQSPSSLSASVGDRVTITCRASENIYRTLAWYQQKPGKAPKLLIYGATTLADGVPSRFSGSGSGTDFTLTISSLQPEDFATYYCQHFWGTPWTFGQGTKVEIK in, do you know?
[reply] bottom

[ask] Likewise for CD81K13 HC 01-hVH_1_f / LC 5b-hVK_1_39 (antibody, V domains shown, human constant region) VH: EVQLVQSGAEVKKPGATVKISCKVSGYTFTDSYMHWVQQAPGKGLEWMGRIDTGNGNVKFDPKFQGRVTITADTSTDTAYMELSSLRSEDTAVYYCAPYGYGFHSWGQGTLVTVSS VL: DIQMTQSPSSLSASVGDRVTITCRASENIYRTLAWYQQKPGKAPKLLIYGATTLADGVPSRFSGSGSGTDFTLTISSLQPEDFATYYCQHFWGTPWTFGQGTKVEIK ?
[reply] top

Data origin: patent US20200377590A1
